The measured values listed here are drawn from the supplement of paper PMC10724198.

# key: entry, value: protein stability index
tested on: Saccharomyces cerevisiae; assay: protein stability index of tFT-peptide fusion (C-terminal peptide) (PSI (0-1 scale)); higher = more stable (slower turnover); settings: genetic background: wild type; temperature: 30 C
Quick one: just the number, no unit, thanks!

Here is how some sequences turned out for protein stability index.
>  <entry_sequence>
CDRPERRRTHVY

>  <protein stability index>
0.655

$$$$
>  <entry_sequence>
RCRLYLNVVVLC

>  <protein stability index>
0.246

$$$$
>  <entry_sequence>
NGGKDAVVLGGG

>  <protein stability index>
0.636

$$$$

[in] Reported protein stability index for `RGSRVDLKLSKK` : what is it?
[out] 0.678

[in] Dear colleague, I am looking for the recorded protein stability index of the following sequence: `GSRAWERSERVR`
[out] 0.649

[in] Sample `SRLVSRLGLYLS` — what was its protein stability index?
[out] 0.361

[in] Tell me the measured protein stability index of `GNRDLVNTSVEG` , please.
[out] 0.547

[in] # query: protein stability index of entry `FPASLDAVTRPP`
[out] 0.722

[in] Any idea what its protein stability index is? The sequence is `AWSALWGAVSPY`
[out] 0.707

###

test system: Saccharomyces cerevisiae; assay: protein stability index of tFT-peptide fusion (C-terminal peptide) (PSI (0-1 scale)); higher = more stable (slower turnover); conditions: genetic background: wild type; temperature: 30 C
endpoint: protein stability index

Use the examples below as a reference point.
>  <entry_sequence>
TITRIAFRFCYS

>  <protein stability index>
0.556

$$$$
>  <entry_sequence>
KKKKKKNNSKTT

>  <protein stability index>
0.739

$$$$
>  <entry_sequence>
FEDIPSMEYRSI

>  <protein stability index>
0.702

$$$$

[in] What value of protein stability index has been recorded for this entry: `RAPPAARIASGL`
[out] 0.677

[in] Dear colleague, I am looking for the recorded protein stability index of the following sequence: `PPSLPSVRLSLS`
[out] 0.685

[in] Could you share which protein stability index value was measured for `GYTRYYRLLQSR` ?
[out] 0.642

[in] Data request, read-out protein stability index, for `VKEVSVIKNHQG`
[out] 0.454

[in] Reported protein stability index, sequence `IGVRSPSTHIVN` : ____
[out] 0.72

###

Parameter protein stability index: see the listing below.
tested on: Saccharomyces cerevisiae; assay: protein stability index of tFT-peptide fusion (C-terminal peptide) (PSI (0-1 scale)); higher = more stable (slower turnover); conditions: genetic background: wild type; temperature: 30 C

[in] Query: protein stability index; subject: LDYLSSYINRRI [FLP1 C-terminal 12 aa]
[out] 0.695

###

tested on: Saccharomyces cerevisiae; assay: protein stability index of tFT-peptide fusion (C-terminal peptide) (PSI (0-1 scale)); higher = more stable (slower turnover); conditions: genetic background: das1 deletion; temperature: 30 C
endpoint: protein stability index
# print the numeric value only

>  <entry_sequence>
ALWKEKKEKPRS [RPS23A C-terminal 12 aa]

>  <quantitative_readout>
0.709

$$$$
>  <entry_sequence>
EKLPSKFTFKRE [ARN1 C-terminal 12 aa]

>  <quantitative_readout>
0.696

$$$$
>  <entry_sequence>
QRSKSKRQKRRK [YNG1 C-terminal 12 aa]

>  <quantitative_readout>
0.705

$$$$
>  <entry_sequence>
KFETPGEYKKRI [LCL3 C-terminal 12 aa]

>  <quantitative_readout>
0.697

$$$$
>  <entry_sequence>
KWFRENDGKKAN [TSC10 C-terminal 12 aa]

>  <quantitative_readout>
0.701

$$$$

[in] What does the record list as protein stability index for RLEKEAKIKQEE [CDC11 C-terminal 12 aa] ?
[out] 0.697

[in] I am curious: what protein stability index value has been reported for KKKKQIKNFQFG [YMR290W-A C-terminal 12 aa] ?
[out] 0.687
